Below is a list of entries, each paired with its recorded folding stability dG value.
B1: 6NMW (parent)
chain: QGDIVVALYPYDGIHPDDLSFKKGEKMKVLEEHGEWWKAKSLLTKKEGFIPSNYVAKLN

variants of: B1; test: folding stability dG (cDNA display proteolysis); higher = more stable; settings: PBS, room temperature

| RESIDUE CHANGE | folding stability dG / kcal/mol |
| --- | --- |
| I14F | 2.99 |
| A39S | 0.729 |
| A39W | -0.54 |
| K57R | 4.37 |
| A7L | -0.675 |
| E35W | 4.11 |
| K28C | 3.9 |
